- Test system: Microsporum canis B68128
- measurement-description: Antifungal activity in vitro (resazurin susceptibility screen), Inf. B
- Type: cell-based
- condition-description: Microsporum canis, B68128, Microsporum canis B68128; 27 °C, 9 days, resa time 24 hours; read-out: Inf. B pIC50 (converted)
reported-endpoint: IC50

Recorded results for 5 compounds are shown here.
compound=CC(=O)c1cccc(C2=NCc3c(Cl)cccc3-n3cccc32)c1 data_value="0.316 µM"
compound="CC(=O)c1cc(C2NCc3c(Cl)cc(Cl)cc3-n3cccc32)ccc1F (stereo not drawn)" data_value="7.94 µM"
compound=CS(=O)(=O)c1ccc(C2=NCc3c(Cl)cccc3-n3cccc32)cc1 data_value="1.26 µM"
compound=CS(=O)(=O)c1cccc(C2=NCc3c(Cl)cc(Cl)cc3-n3cccc32)c1 data_value="> 63.1 µM"
compound=CC(=O)c1ccc(C2=NCc3c(F)cccc3-n3cccc32)cc1 data_value="1.26 µM"

Okay, next one:
INPUT: Query IC50 on Microsporum canis B68128 for `CC(=O)c1ccc(C2=NCc3cccc(Cl)c3-n3cccc32)cc1`
OUTPUT: 0.631 µM
